Source listed as the RNAGym collection of RNA variant scans (doi:10.7554/elife.80360).

B1: HDV Ribozyme (parent)
chain: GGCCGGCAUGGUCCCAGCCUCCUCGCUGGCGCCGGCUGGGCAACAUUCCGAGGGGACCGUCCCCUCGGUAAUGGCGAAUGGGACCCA

Variants of: B1
Assay: self-cleavage, relative activity (ratio to wild type); higher = more cleavage; co-transcriptional
Lab note: compare self-cleavage against 0.3. Equal or greater, write Criterion met. Smaller, write Criterion not met.

Please review the following examples before continuing.
• U65C C86A = Criterion met
• G50A C64G = Criterion met
• C33G G53U = Criterion not met
• C22A A51U = Criterion met
• U9A C84A = Criterion met
• C66A A77G = Criterion met
• U9G G59U = Criterion met
• C21G C44G = Criterion not met

I'd appreciate it if you could say whether U12A A78C has self-cleavage at least equal to 0.3.
Criterion not met

I'd appreciate it if you could say whether G5C G11U has self-cleavage at least equal to 0.3.
Criterion not met

I'd appreciate it if you could say whether G1U C24U has self-cleavage at least equal to 0.3.
Criterion met

I'd appreciate it if you could say whether G31U A77G has self-cleavage at least equal to 0.3.
Criterion not met
